All figures here come from paper PMC9482650.

study.system: GRIP2_4, Q9C0E4
Sequence (Q9C0E4 446-548): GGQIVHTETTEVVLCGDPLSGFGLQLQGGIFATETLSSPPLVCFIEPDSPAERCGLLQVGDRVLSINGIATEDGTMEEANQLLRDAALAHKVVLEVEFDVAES
assay.protocol: holdup assay
Parameters: key: below the threshold = too weak to quantify, mostly under pKd 3.1 to 4
condition.details: plain residues with an end cap or a label only (N-terminal biotin on a linker: ado-ado)
attribute.measured: pKd

Solved cases (6 shown):
binder	pKd
KSGKQTMLVV [TRIM29, Q14134;Q14134-2]	below the threshold
RKPKPSSSCC [RAB9A, P51151]	below the threshold
SKENVQETQI [LRRC4B, Q9NT99]	below the threshold
TPPAAKKSRI [BAZ1A, Q9NRL2]	below the threshold
SAAKVLTSMC [GHRHR, Q02643]	below the threshold
PEYLGLDVPV [ERBB2, P04626]	below the threshold

Problem: I have this binder here, TSQESEDTYL [TBC1D10A, Q9BXI6] , and I need its recorded pKd.
Solution: below the threshold

Problem: Which pKd value belongs to FNSYSLTGYV [CLDN2, P57739] ?
Solution: below the threshold
